B1: library; numbered along this chain (parent)
chain: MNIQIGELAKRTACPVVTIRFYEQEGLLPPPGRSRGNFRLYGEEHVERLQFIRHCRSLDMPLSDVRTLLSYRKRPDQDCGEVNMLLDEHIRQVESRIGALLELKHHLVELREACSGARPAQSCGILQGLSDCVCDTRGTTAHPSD

- Variants of: B1
- ASSAY_EXPLANATION: sfGFP reporter fluorescence (15 h) (µM FITC); higher = stronger transcriptional activation
- PROTOCOL_CONDITIONS: library round: Round 0; ligand: 1 µM Pb
Assign a class from recorded sfGFP reporter fluorescence; defined classes: low bin = under 0.06, mid bin = from 0.06 up to 0.08, high bin = 0.08 and over

A selection of reference data follows.
C114G    low bin
L110G    low bin
I3F    mid bin
L62G    low bin
E43Q    mid bin

## Input Which class holds G6A ?
## Output low bin

## Input The entry to classify is V16F ; which class holds it?
## Output mid bin

## Input Class (by measured sfGFP reporter fluorescence) for E7F
## Output mid bin

## Input Which class is correct for the following variant? I97E
## Output mid bin

## Input Hi there! Could you help me figure out the category for P61N D64K K104V please?
## Output high bin

## Input Kindly state the category for this variant: G42A
## Output mid bin

## Input Determine which band this variant sits in: M60L P61N D64K G128M
## Output high bin
